This listing pairs compounds with measured Inhibition at 100 μM.
tested on: Botrytis cinerea (B05.10); experiment: Resazurin antifungal assay of 180 alpha-factor peptide variants towards Botrytis (Example 2); format: cell-based; conditions: % inhibition of fungal growth, Botrytis conidia, peptide 100 μM, resazurin
Peptide text beside a SMILES is read from it.

{"Compound": "CC[C@H](C)[C@H](NC(=O)[C@H](Cc1c[nH]c2ccccc12)NC(=O)[C@H](Cc1c[nH]cn1)NC(=O)[C@@H](N)CCCCN)C(=O)N[C@H](C(=O)N[C@@H](Cc1ccccc1)C(=O)N[C@@H](CCCCN)C(=O)N1CCC[C@H]1C(=O)NCC(=O)N[C@@H](CCC(N)=O)C(=O)N1CCC[C@H]1C(=O)N[C@@H](CCSC)C(=O)N[C@@H](Cc1ccc(O)cc1)C(=O)O)[C@@H](C)O [compound 11] (H-KHWITFKPGQPMY-OH; N-terminus and C-terminus assumed)", "Target Entity": "Botrytis cinerea (B05.10)", "Readout Units": "%", "Sign Qualifier": "=", "Inhibition at 100 μM": 100}
{"Compound": "CSCC[C@H](NC(=O)[C@@H]1CCCN1C(=O)[C@H](CCC(N)=O)NC(=O)CNC(=O)[C@@H]1CCCN1C(=O)[C@H](Cc1ccc(O)cc1)NC(=O)[C@H](CC(C)C)NC(=O)[C@H](CCCCN)NC(=O)[C@H](CC(C)C)NC(=O)[C@H](Cc1c[nH]c2ccccc12)NC(=O)[C@H](CCC(=O)O)NC(=O)[C@@H]1CCCN1)C(=O)N[C@@H](Cc1ccc(O)cc1)C(=O)O [compound 49] (H-PEWLKLYPGQPMY-OH; N-terminus and C-terminus assumed)", "Target Entity": "Botrytis cinerea (B05.10)", "Readout Units": "%", "Sign Qualifier": "<", "Inhibition at 100 μM": 90}
{"Compound": "CSCC[C@H](NC(=O)[C@@H]1CCCN1C(=O)[C@H](CCC(N)=O)NC(=O)CNC(=O)[C@H](CO)NC(=O)[C@H](Cc1c[nH]c2ccccc12)NC(=O)[C@H](CC(C)C)NC(=O)[C@H](CCC(N)=O)NC(=O)CNC(=O)[C@H](CO)NC(=O)[C@H](Cc1c[nH]cn1)NC(=O)[C@@H]1CCCN1)C(=O)N[C@@H](Cc1ccc(O)cc1)C(=O)O [compound 42] (H-PHSGQLWSGQPMY-OH; N-terminus and C-terminus assumed)", "Target Entity": "Botrytis cinerea (B05.10)", "Readout Units": "%", "Sign Qualifier": "<", "Inhibition at 100 μM": 90}
{"Compound": "CSCC[C@H](NC(=O)[C@@H]1CCCN1C(=O)[C@H](CCC(N)=O)NC(=O)CNC(=O)[C@@H]1CCCN1C(=O)[C@H](CCCCN)NC(=O)[C@H](CC(C)C)NC(=O)[C@H](C)NC(=O)[C@H](CC(C)C)NC(=O)CNC(=O)CNC(=O)[C@@H](N)Cc1c[nH]c2ccccc12)C(=O)N[C@@H](Cc1ccc(O)cc1)C(=O)O [compound 48] (H-WGGLALKPGQPMY-OH; N-terminus and C-terminus assumed)", "Target Entity": "Botrytis cinerea (B05.10)", "Readout Units": "%", "Sign Qualifier": "<", "Inhibition at 100 μM": 90}
{"Compound": "CSCC[C@H](NC(=O)[C@H](Cc1c[nH]cn1)NC(=O)[C@@H]1CCCN1)C(=O)N[C@H](C(=O)N[C@@H](CCCNC(=N)N)C(=O)N[C@@H](CC(C)C)C(=O)N[C@@H](CCCCN)C(=O)N1CCC[C@H]1C(=O)NCC(=O)N[C@@H](CCC(N)=O)C(=O)N1CCC[C@H]1C(=O)N[C@@H](CCSC)C(=O)N[C@@H](Cc1ccc(O)cc1)C(=O)O)C(C)C [compound 132] (H-PHMVRLKPGQPMY-OH; N-terminus and C-terminus assumed)", "Target Entity": "Botrytis cinerea (B05.10)", "Readout Units": "%", "Sign Qualifier": "=", "Inhibition at 100 μM": 94.13}
{"Compound": "CC[C@H](C)[C@H](NC(=O)[C@H](CC(=O)O)NC(=O)[C@H](CCCNC(=N)N)NC(=O)[C@@H](N)Cc1c[nH]c2ccccc12)C(=O)N[C@@H](CCCNC(=N)N)C(=O)N[C@@H](CC(C)C)C(=O)N[C@@H](CCCCN)C(=O)N[C@@H](CCCCN)C(=O)NCC(=O)N[C@@H](CCC(N)=O)C(=O)N1CCC[C@H]1C(=O)N[C@@H](CCSC)C(=O)N[C@@H](Cc1ccc(O)cc1)C(=O)O [compound 79] (H-WRDIRLKKGQPMY-OH; N-terminus and C-terminus assumed)", "Target Entity": "Botrytis cinerea (B05.10)", "Readout Units": "%", "Sign Qualifier": "=", "Inhibition at 100 μM": 100}
{"Compound": "CC[C@H](C)[C@H](NC(=O)[C@H](Cc1c[nH]c2ccccc12)NC(=O)[C@H](CCCCN)NC(=O)[C@@H](N)CCCCN)C(=O)N[C@@H](CCC(N)=O)C(=O)N[C@@H](CC(C)C)C(=O)N[C@@H](CCCCN)C(=O)N1CCC[C@H]1C(=O)NCC(=O)N[C@@H](CCC(=O)O)C(=O)N1CCC[C@H]1C(=O)N[C@@H](CCSC)C(=O)N[C@@H](Cc1ccc(O)cc1)C(=O)O [compound 175] (H-KKWIQLKPGEPMY-OH; N-terminus and C-terminus assumed)", "Target Entity": "Botrytis cinerea (B05.10)", "Readout Units": "%", "Sign Qualifier": "<", "Inhibition at 100 μM": 90}
{"Compound": "CC[C@H](C)[C@H](NC(=O)[C@H](CCC(N)=O)NC(=O)[C@H](CC(C)C)NC(=O)[C@H](Cc1c[nH]c2ccccc12)NC(=O)[C@H](Cc1c[nH]cn1)NC(=O)[C@@H](N)CCCCN)C(=O)N[C@@H](CCCCN)C(=O)N[C@@H](Cc1ccc(O)cc1)C(=O)NCC(=O)N[C@@H](CCC(=O)O)C(=O)N1CCC[C@H]1C(=O)N[C@@H](CCSC)C(=O)N[C@@H](Cc1ccc(O)cc1)C(=O)O [compound 7] (H-KHWLQIKYGEPMY-OH; N-terminus and C-terminus assumed)", "Target Entity": "Botrytis cinerea (B05.10)", "Readout Units": "%", "Sign Qualifier": "=", "Inhibition at 100 μM": 100}
{"Compound": "CSCC[C@H](NC(=O)[C@H](CO)NC(=O)[C@H](CCC(N)=O)NC(=O)CNC(=O)[C@@H]1CCCN1C(=O)[C@H](CCCCN)NC(=O)[C@H](Cc1ccccc1)NC(=O)[C@H](CCC(N)=O)NC(=O)[C@H](CC(C)C)NC(=O)CNC(=O)[C@@H](NC(=O)[C@@H]1CCCN1)[C@@H](C)O)C(=O)N[C@@H](Cc1ccc(O)cc1)C(=O)O [compound 45] (H-PTGLQFKPGQSMY-OH; N-terminus and C-terminus assumed)", "Target Entity": "Botrytis cinerea (B05.10)", "Readout Units": "%", "Sign Qualifier": "<", "Inhibition at 100 μM": 90}

Where these numbers come from: patent US20250382332A1
